# System under test: TRβ-GAL4 binding domain chimeric receptors (Homo sapiens (Human), UniProt P10828)
# Protocol summary: Thyroid hormone receptor cell assay (GAL4 luciferase reporter in HEK293-LUC cells)
Property: EC50 (µM)

Worked examples, 4 molecules total:
>  <Molecule>
Cc1nn(-c2cc(Br)c(Oc3cc(C4CC4)c(=O)[nH]n3)c(Br)c2)c(=O)[nH]c1=O

>  <Readout units>
µM

>  <Reported result>
0.18

$$$$
>  <Molecule>
N#Cc1nn(-c2cc(Cl)c(Oc3cc(C4CCCCC4)c(=O)[nH]n3)c(Cl)c2)c(=O)[nH]c1=O

>  <Readout units>
µM

>  <Reported result>
12.2

$$$$
>  <Molecule>
N#Cc1nn(-c2cc(Cl)c(Oc3cc(C4CCC4)c(=O)[nH]n3)c(C(F)(F)F)c2)c(=O)[nH]c1=O

>  <Readout units>
µM

>  <Reported result>
5.29

$$$$
>  <Molecule>
Cc1nn(-c2cc(Cl)c(Oc3cc(C4CCCCC4)c(=O)[nH]n3)c(Cl)c2)c(=O)[nH]c1=O

>  <Readout units>
µM

>  <Reported result>
4.61

$$$$

I: N#Cc1nn(-c2cc(Cl)c(Oc3cc(C4CC4)c(=O)[nH]n3)c(C(F)(F)F)c2)c(=O)[nH]c1=O
II: CCc1nn(-c2cc(Cl)c(Oc3cc(C(C)C)c(=O)[nH]n3)c(Cl)c2)c(=O)[nH]c1=O
Incoming: Param pair: I , II . Output: the one whose EC50 is numerically greater. Indicate your choice by writing its label.
Outgoing: I
(I: 4.1 µM, II: 1.22 µM)

a: Cc1nn(-c2cc(Br)c(Oc3cc(C4CCCC4)c(=O)[nH]n3)c(Br)c2)c(=O)[nH]c1=O
b: N#Cc1nn(-c2cc(Cl)c(Oc3cc(C4CCCC4)c(=O)[nH]n3)c(Cl)c2)c(=O)[nH]c1=O
c: CC(c1cc(Oc2c(Cl)cc(-n3nc(C#N)c(=O)[nH]c3=O)cc2C(F)(F)F)n[nH]c1=O)C1CCCCC1 (single isomer, unassigned) [Compound 99]
Incoming: Provide the items ranked by increasing EC50. Reply: labels, ordered per the request.
Outgoing: a, b, c
(a: 0.2 µM, b: 9.88 µM, c: 18.5 µM)

P: CC(C)c1n[nH]c2ccc(Oc3c(Cl)cc(-n4nc(C#N)c(=O)[nH]c4=O)cc3Cl)cc12
Q: Cc1nn(-c2cc(Cl)c(Oc3cc([C@@H](C)c4ccccc4)c(=O)[nH]n3)c(Cl)c2)c(=O)[nH]c1=O (single isomer, unassigned)
Incoming: Param pair: P , Q . Output: the one whose EC50 is numerically greater. Indicate your choice by writing its label.
Outgoing: P
(P: 2.76 µM, Q: 0.46 µM)

A: CC(c1cc(Oc2c(Cl)cc(-n3nc(C#N)c(=O)[nH]c3=O)cc2Cl)n[nH]c1=O)C1CCCCC1 (single isomer, unassigned)
B: CC(C)c1cc(Oc2c(Cl)cc(-n3nc(C#N)c(=O)[nH]c3=O)cc2C(F)(F)F)n[nH]c1=O
C: Cc1nn(-c2cc(Cl)c(Oc3cc(C(C)C4CCCCC4)c(=O)[nH]n3)c(Cl)c2)c(=O)[nH]c1=O (single isomer, unassigned)
Incoming: Thanks in advance: please rank these 3 entries by EC50, highest to lowest. Reply: labels, ordered per the request.
Outgoing: A, B, C

----------
# System under test: ligand binding domain of thyroid hormone receptor alpha (Homo sapiens (Human))
# Sequence (P10827 other isoform, or with tags, fused parts or gaps del 1-162, other chains not shown): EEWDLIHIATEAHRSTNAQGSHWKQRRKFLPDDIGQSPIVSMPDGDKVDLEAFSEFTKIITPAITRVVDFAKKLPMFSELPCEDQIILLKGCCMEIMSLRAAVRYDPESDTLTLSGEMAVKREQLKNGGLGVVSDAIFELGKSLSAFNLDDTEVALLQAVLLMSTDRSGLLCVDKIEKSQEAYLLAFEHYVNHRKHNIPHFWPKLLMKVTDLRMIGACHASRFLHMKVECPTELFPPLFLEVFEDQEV
# Protocol summary: Thyroid hormone receptor TR-FRET binding assay (TRα LBD)
# Assay setup: TRα LBD 4 nM
Property: EC50 (µM)

Worked examples, 8 molecules total:
>  <Molecule>
CC(C)c1cc(Oc2c(Cl)cc(CCP(=O)(O)O)cc2Cl)n[nH]c1=O

>  <System under test>
ligand binding domain of thyroid hormone receptor alpha (Homo sapiens (Human))

>  <Property>
EC50

>  <Reported result>
90

$$$$
>  <Molecule>
Cc1nn(-c2cc(Br)c(Oc3cc(C(C)C)c(=O)[nH]n3)c(Br)c2)c(=O)[nH]c1=O

>  <System under test>
ligand binding domain of thyroid hormone receptor alpha (Homo sapiens (Human))

>  <Property>
EC50

>  <Reported result>
0.31

$$$$
>  <Molecule>
N#Cc1nn(-c2cc(Cl)c(Oc3cc(Cc4ccccc4O)c(=O)[nH]n3)c(Cl)c2)c(=O)[nH]c1=O

>  <System under test>
ligand binding domain of thyroid hormone receptor alpha (Homo sapiens (Human))

>  <Property>
EC50

>  <Reported result>
90

$$$$
>  <Molecule>
N#Cc1nn(-c2cc(Cl)c(Oc3cc(Cc4ccccc4)c(=O)[nH]n3)c(C(F)(F)F)c2)c(=O)[nH]c1=O

>  <System under test>
ligand binding domain of thyroid hormone receptor alpha (Homo sapiens (Human))

>  <Property>
EC50

>  <Reported result>
90

$$$$
>  <Molecule>
CC(C)c1c[nH]c2ccc(Oc3c(Cl)cc(-n4nc(C#N)c(=O)[nH]c4=O)cc3C(F)(F)F)cc12

>  <System under test>
ligand binding domain of thyroid hormone receptor alpha (Homo sapiens (Human))

>  <Property>
EC50

>  <Reported result>
0.14

$$$$
>  <Molecule>
CCC(CC)c1cc(Oc2c(Cl)cc(-n3nc(C)c(=O)[nH]c3=O)cc2Cl)n[nH]c1=O

>  <System under test>
ligand binding domain of thyroid hormone receptor alpha (Homo sapiens (Human))

>  <Property>
EC50

>  <Reported result>
38.8

$$$$
>  <Molecule>
N#Cc1nn(-c2cc(Cl)c(Oc3cc(C4CC4)c(=O)[nH]n3)c(Br)c2)c(=O)[nH]c1=O

>  <System under test>
ligand binding domain of thyroid hormone receptor alpha (Homo sapiens (Human))

>  <Property>
EC50

>  <Reported result>
5.82

$$$$
>  <Molecule>
CC(C)c1c[nH]c2ccc(Oc3c(Cl)cc(-n4nc(C#N)c(=O)[nH]c4=O)cc3Cl)cc12

>  <System under test>
ligand binding domain of thyroid hormone receptor alpha (Homo sapiens (Human))

>  <Property>
EC50

>  <Reported result>
1.03

$$$$

P: COc1ccccc1Cc1cc(Oc2c(Cl)cc(-n3nc(C)c(=O)[nH]c3=O)cc2Cl)n[nH]c1=O
Q: Cc1nn(-c2cc(Cl)c(Oc3cc(C(C)C4CCCCC4)c(=O)[nH]n3)c(Cl)c2)c(=O)[nH]c1=O (centres unmarked) [Compound 61]
R: Cc1nn(-c2cc(Br)c(Oc3cc(C(=O)c4ccccc4)c(=O)[nH]n3)c(Br)c2)c(=O)[nH]c1=O
S: Cc1nn(-c2cc(Br)c(Oc3cc(C4CC4)c(=O)[nH]n3)c(Br)c2)c(=O)[nH]c1=O
Incoming: Thanks in advance: please rank these 4 entries by EC50, highest to lowest. Reply: labels, ordered per the request.
Outgoing: P, R, Q, S

----------
# System under test: ligand binding domain of thyroid hormone receptor beta (Homo sapiens (Human), UniProt P10828)
# Sequence (P10828 217-461): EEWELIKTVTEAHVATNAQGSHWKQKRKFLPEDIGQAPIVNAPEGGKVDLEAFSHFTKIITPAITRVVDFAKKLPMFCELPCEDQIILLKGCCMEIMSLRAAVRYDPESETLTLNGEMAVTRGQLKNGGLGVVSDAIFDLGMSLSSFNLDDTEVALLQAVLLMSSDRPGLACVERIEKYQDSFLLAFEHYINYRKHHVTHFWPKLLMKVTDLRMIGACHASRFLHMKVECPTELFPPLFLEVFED
# Protocol summary: Thyroid hormone receptor TR-FRET binding assay (TRβ LBD)
# Assay setup: TRβ LBD 2 nM
Property: EC50 (nM)

Worked examples, 9 molecules total:
>  <Molecule>
CC(C)c1n[nH]c2ccc(Oc3c(Cl)cc(-n4nc(C#N)c(=O)[nH]c4=O)cc3Cl)cc12

>  <EC50 (nM)>
180

$$$$
>  <Molecule>
COc1ccccc1Cc1cc(Oc2c(Cl)cc(-n3nc(C)c(=O)[nH]c3=O)cc2Cl)n[nH]c1=O

>  <EC50 (nM)>
2620

$$$$
>  <Molecule>
Cc1nn(-c2cc(Br)c(Oc3cc(C(=O)c4ccccc4)c(=O)[nH]n3)c(Br)c2)c(=O)[nH]c1=O

>  <EC50 (nM)>
810

$$$$
>  <Molecule>
CC(C)c1c[nH]c2ccc(Oc3c(Cl)cc(-n4nc(C#N)c(=O)[nH]c4=O)cc3C(F)(F)F)cc12

>  <EC50 (nM)>
20

$$$$
>  <Molecule>
Cc1nn(-c2cc(Cl)c(Oc3cc(Cc4ccc(O)cc4)c(=O)[nH]n3)c(Cl)c2)c(=O)[nH]c1=O

>  <EC50 (nM)>
10

$$$$
>  <Molecule>
Cc1nn(-c2cc(Cl)c(Oc3cc([C@@H](C)c4ccccc4)c(=O)[nH]n3)c(Cl)c2)c(=O)[nH]c1=O (single isomer, unassigned)

>  <EC50 (nM)>
300

$$$$
>  <Molecule>
N#Cc1nn(-c2cc(Cl)c(Oc3cc(Cc4ccccc4)c(=O)[nH]n3)c(C(F)(F)F)c2)c(=O)[nH]c1=O

>  <EC50 (nM)>
240

$$$$
>  <Molecule>
N#Cc1nn(-c2cc(Cl)c(Oc3cc(C4CCCC4)c(=O)[nH]n3)c(C(F)(F)F)c2)c(=O)[nH]c1=O

>  <EC50 (nM)>
170

$$$$
>  <Molecule>
CC(C)c1cc(Oc2c(Cl)cc(-n3nc(C#N)c(=O)[nH]c3=O)cc2C(F)(F)F)n[nH]c1=O

>  <EC50 (nM)>
160

$$$$

a: Cc1nn(-c2cc(Br)c(Oc3cc(C4CCC4)c(=O)[nH]n3)c(Br)c2)c(=O)[nH]c1=O
b: N#Cc1nn(-c2cc(Cl)c(Oc3cc(C4CC4)c(=O)[nH]n3)c(Cl)c2)c(=O)[nH]c1=O
Incoming: Could you tell me which of these two has the smaller EC50 figure? First: a Second: b Indicate your choice by writing its label.
Outgoing: a
